Molecular target: Delta-type opioid receptor (Rattus norvegicus)
Sequence (P33533 whole entry): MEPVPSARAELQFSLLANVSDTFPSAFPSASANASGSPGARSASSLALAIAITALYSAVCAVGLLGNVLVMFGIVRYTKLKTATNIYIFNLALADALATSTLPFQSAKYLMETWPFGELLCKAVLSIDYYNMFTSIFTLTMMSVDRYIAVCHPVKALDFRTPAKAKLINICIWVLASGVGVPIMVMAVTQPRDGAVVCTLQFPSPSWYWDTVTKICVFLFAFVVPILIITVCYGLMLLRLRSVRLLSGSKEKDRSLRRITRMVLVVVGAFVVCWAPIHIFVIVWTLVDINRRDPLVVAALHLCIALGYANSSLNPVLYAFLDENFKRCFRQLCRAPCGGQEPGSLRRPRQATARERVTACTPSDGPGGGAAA
Assay: Displacement of [3H]DPDPE (0.63 nM) from Opioid receptor delta 1
Square brackets hold non-standard residues; d marks the D form. Peptide text beside a SMILES is read from it. Ac6c = NC1(C(=O)O)CCCCC1; Ac3c = NC1(C(=O)O)CC1
propertyName: pKi
Give bare numbers, as −log10 of the molar value.

Solved entries (count: 4):
| compound | recordedValue |
| --- | --- |
| CC(C)[C@H](NC(=O)[C@@H](NC(=O)C1(NC(=O)[C@H](Cc2ccccc2)NC(=O)[C@H](C)NC(=O)[C@@H](N)Cc2ccc(O)cc2)CCCCC1)C(C)C)C(=O)NCC(N)=O (H-YAF[Ac6c]VVG-NH2) | 10.35 |
| CC(C)[C@H](NC(=O)[C@H](CC(=O)O)NC(=O)C1(NC(=O)[C@H](C)NC(=O)[C@@H](N)Cc2ccc(O)cc2)CCCCC1)C(=O)N[C@H](C(=O)NCC(N)=O)C(C)C (H-YA[Ac6c]DVVG-NH2) | 8.48 |
| CC(C)[C@H](NC(=O)[C@H](CC(=O)O)NC(=O)[C@H](Cc1ccccc1)NC(=O)[C@@H](C)NC(=O)[C@@H](N)Cc1ccc(O)cc1)C(=O)N[C@H](C(=O)NCC(N)=O)C(C)C [DELTORPHIN C] | 9.82 |
| CC(C)[C@H](NC(=O)[C@@H](NC(=O)C1(NC(=O)[C@H](Cc2ccccc2)NC(=O)[C@H](C)NC(=O)[C@@H](N)Cc2ccc(O)cc2)CC1)C(C)C)C(=O)NCC(N)=O (H-YAF[Ac3c]VVG-NH2) | 10.27 |

Could you report pKi for every entry in the following list?
1. CC(C)[C@H](NC(=O)[C@H](CC(=O)O)NC(=O)[C@H](Cc1ccccc1)NC(=O)C1(NC(=O)[C@@H](N)Cc2ccc(O)cc2)CCCCC1)C(=O)N[C@H](C(=O)NCC(N)=O)C(C)C (H-Y[Ac6c]FDVVG-NH2)
2. CC(C)[C@H](NC(=O)[C@H](CC(=O)O)NC(=O)C1(NC(=O)C2(NC(=O)[C@@H](N)Cc3ccc(O)cc3)CCCCC2)CCCCC1)C(=O)N[C@H](C(=O)NCC(N)=O)C(C)C (H-Y[Ac6c][Ac6c]DVVG-NH2)
3. CC(C)[C@H](NC(=O)[C@H](CC(=O)O)NC(=O)C1(NC(=O)[C@@H](N)Cc2ccc(O)cc2)CCCCC1)C(=O)N[C@H](C(=O)NCC(N)=O)C(C)C (H-Y[Ac6c]DVVG-NH2)

## Result
1: 8.61; 2: 7.06; 3: 5.28

----------
Biological target: Mu-type opioid receptor (Rattus norvegicus)
Sequence (P33535 whole entry): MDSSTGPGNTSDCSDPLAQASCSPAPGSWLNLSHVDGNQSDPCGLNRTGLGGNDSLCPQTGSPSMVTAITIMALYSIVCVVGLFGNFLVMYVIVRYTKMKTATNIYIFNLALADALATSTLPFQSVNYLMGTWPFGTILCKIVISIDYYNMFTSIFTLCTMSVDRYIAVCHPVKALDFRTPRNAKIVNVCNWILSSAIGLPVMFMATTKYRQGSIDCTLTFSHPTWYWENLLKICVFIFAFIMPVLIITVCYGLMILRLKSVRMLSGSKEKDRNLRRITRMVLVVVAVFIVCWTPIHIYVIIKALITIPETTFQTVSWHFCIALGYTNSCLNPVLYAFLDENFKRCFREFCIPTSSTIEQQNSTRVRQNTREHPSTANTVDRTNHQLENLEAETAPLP
pKi: −log10 of the molar value. Square brackets hold non-standard residues; d marks the D form. Peptide text beside a SMILES is read from it. Ac6c = NC1(C(=O)O)CCCCC1; Ac5c = NC1(C(=O)O)CCCC1; Ac3c = NC1(C(=O)O)CC1
1 (yes) means recorded pKi is 6 or above; 0 (no) means it is below 6.

| molecule | class |
| --- | --- |
| CC(C)[C@H](NC(=O)[C@H](CC(=O)O)NC(=O)[C@H](Cc1ccccc1)NC(=O)C1(NC(=O)[C@@H](N)Cc2ccc(O)cc2)CCCCC1)C(=O)N[C@H](C(=O)NCC(N)=O)C(C)C (H-Y[Ac6c]FDVVG-NH2) | 0 (no) |
| CC(C)[C@H](NC(=O)[C@@H](NC(=O)C1(NC(=O)[C@H](Cc2ccccc2)NC(=O)[C@H](C)NC(=O)[C@@H](N)Cc2ccc(O)cc2)CC1)C(C)C)C(=O)NCC(N)=O (H-YAF[Ac3c]VVG-NH2) | 1 (yes) |
| CC(C)[C@H](NC(=O)[C@H](CC(=O)O)NC(=O)C1(NC(=O)[C@H](C)NC(=O)[C@@H](N)Cc2ccc(O)cc2)CC1)C(=O)N[C@H](C(=O)NCC(N)=O)C(C)C (H-YA[Ac3c]DVVG-NH2) | 0 (no) |
| CC(C)[C@H](NC(=O)[C@H](CC(=O)O)NC(=O)C1(NC(=O)[C@H](C)NC(=O)[C@@H](N)Cc2ccc(O)cc2)CCCC1)C(=O)N[C@H](C(=O)NCC(N)=O)C(C)C (H-YA[Ac5c]DVVG-NH2) | 0 (no) |

Continue with the next molecule.
## Task hey, is pKi for this one >= 6? CC(C)[C@H](NC(=O)[C@@H](NC(=O)C1(NC(=O)[C@H](Cc2ccccc2)NC(=O)[C@H](C)NC(=O)[C@@H](N)Cc2ccc(O)cc2)CCCC1)C(C)C)C(=O)NCC(N)=O (H-YAF[Ac5c]VVG-NH2)
## Result 1 (yes)
